Hey, just so you know, these numbers are from ChEMBL document CHEMBL1150351.

measurement-description: Cytotoxicity against Pgp deficient human LCC6 cells after 72 hrs by sulforhodamine B test
Type: functional, cell-based
run-conditions: C6, 72 h
Rule: measured IC50 below 2 nM gets rule met; anything equal to or greater than 2 nM gets rule not met.

Study these solved cases before continuing.
| cpd-smiles | class |
| --- | --- |
| CC(=O)O[C@@]12CO[C@@H]1C[C@H](O)[C@@]1(C)C(=O)[C@H](OC(=O)c3ccccc3)C3=C(C)[C@@H](OC(=O)[C@H](O)[C@H](C=C(C)C)NC(=O)OC(C)(C)C)C[C@@](O)([C@@H](OC(=O)c4ccccc4)[C@H]21)C3(C)C | rule met |
| COc1cccc(C(=O)O[C@H]2C(=O)[C@@]3(C)[C@H]([C@H](OC(=O)c4ccccc4)[C@]4(O)C[C@H](OC(=O)[C@H](O)[C@H](C=C(C)C)NC(=O)OC(C)(C)C)C(C)=C2C4(C)C)[C@]2(OC(C)=O)CO[C@@H]2C[C@@H]3O)c1 | rule not met |
| CCC(=O)O[C@H]1C(=O)[C@@]2(C)[C@H]([C@H](OC(=O)c3cccc(OC)c3)[C@]3(O)C[C@H](OC(=O)[C@H](O)[C@H](CC(C)C)NC(=O)C4CC4)C(C)=C1C3(C)C)[C@]1(OC(C)=O)CO[C@@H]1C[C@@H]2O | rule met |

# input Consider COc1cccc(CCC(=O)O[C@H]2C(=O)[C@@]3(C)[C@H]([C@H](OC(=O)c4ccccc4)[C@]4(O)C[C@H](OC(=O)[C@H](O)[C@H](C=C(C)C)NC(=O)OC(C)(C)C)C(C)=C2C4(C)C)[C@]2(OC(C)=O)CO[C@@H]2C[C@@H]3O)c1 . Does its IC50 lie strictly below 2 nM?
# output rule not met

# input Consider CCC(=O)O[C@H]1C(=O)[C@@]2(C)[C@H]([C@H](OC(=O)c3cccc(OC)c3)[C@]3(O)C[C@H](OC(=O)[C@H](O)[C@H](C=C(C)C)NC(=O)C4CC4)C(C)=C1C3(C)C)[C@]1(OC(C)=O)CO[C@@H]1C[C@@H]2O . Does its IC50 lie strictly below 2 nM?
# output rule met

# input Consider CCC(=O)O[C@H]1C(=O)[C@@]2(C)[C@H]([C@H](OC(=O)c3cccc(N=[N+]=[N-])c3)[C@]3(O)C[C@H](OC(=O)[C@H](O)[C@H](C=C(C)C)NC(=O)OC(C)(C)C)C(C)=C1C3(C)C)[C@]1(OC(C)=O)CO[C@@H]1C[C@@H]2O . Does its IC50 lie strictly below 2 nM?
# output rule met

# input Consider CCC(=O)O[C@H]1C(=O)[C@@]2(C)[C@H]([C@H](OC(=O)c3cccc(OC)c3)[C@]3(O)C[C@H](OC(=O)[C@H](O)[C@H](C=C(C)C)NC(=O)C4CCC4)C(C)=C1C3(C)C)[C@]1(OC(C)=O)CO[C@@H]1C[C@@H]2O . Does its IC50 lie strictly below 2 nM?
# output rule met

# input Consider CCC(=O)O[C@H]1C(=O)[C@@]2(C)[C@H]([C@H](OC(=O)c3ccccc3)[C@]3(O)C[C@H](OC(=O)[C@H](O)[C@H](C=C(C)C)NC(=O)C4CCC4)C(C)=C1C3(C)C)[C@]1(OC(C)=O)CO[C@@H]1C[C@@H]2O . Does its IC50 lie strictly below 2 nM?
# output rule met
